Data provenance is PubChem BioAssay (NCI).

Provide the recorded growth for the entries that follow.
- Tested on: HCT-15 colon
- assay.remarks: NCI-60 one-dose screen, 48 h (100 = growth as untreated, 0 = no growth, -100 = all killed)
- assay.context: 10 µM unless noted
About 83,000 compounds went through this panel and 20% of them were active in at least one assay; those are over-represented in the sample as a whole. Active and inactive are the calls of the source. Rule for the calls: active = growth percent below 10; inactive = the rest.

Below are worked cases with known answers.
compound	system.name	growth
Cc1cc(C(NC(=O)CCCCCNc2cccc3c2C(=O)N(C2CCC(=O)NC2=O)C3=O)c2cccnc2)c(O)c2ncccc12 (centres undefined)	HCT-15 colon	19% (inactive)
CCCSc1nc(Nc2ccc(/C(C)=N\NC(N)=S)cc2)c(C#N)c(-c2ccc(OC)cc2)n1	HCT-15 colon	75.7% (inactive)
O=C1Nc2ccc(Cl)cc2/C1=C/c1ccc(OCC(=O)c2ccc(Br)cc2)cc1	HCT-15 colon	99.2% (inactive)
CCC/C=C/C=C/C(=O)N[C@@H](Cc1cc(F)cc(F)c1)C(=O)N[C@@H]1C(=O)N2CCC[C@H]2C(=O)N2CCCC[C@H]2C(=O)N[C@@H](C)C(=O)N2C[C@H](C)C[C@H]2C(=O)O[C@H]1C	HCT-15 colon	16.2% (inactive)
CN(C)c1ccc(/C=c2\sc3nc4ccccc4n3c2=O)cc1	HCT-15 colon	107% (inactive)

Take each entry in turn and give its growth.
1. COc1ccc(/C=N/Nc2ccnc3cc(Cl)ccc23)cc1Cl
2. Cc1cc(C(=O)Nc2sc3c(c2C(N)=O)CCC(=O)C3)ccc1OCCN1CCCCC1
3. Cn1cc(-c2cc(N)n3nc(-c4cn(C)c5ccc(F)cc45)cc3n2)c2cc(F)ccc21
4. OC1CCN(CCCOc2c3ccccc3nc3c2oc2ccccc23)CC1
5. CCOc1ccc2nc(NC(=O)c3ccc(C(F)(F)F)cc3)sc2c1

Solution:
1: -20.4% (active); 2: 83.3% (inactive); 3: 4.58% (active); 4: -8.3% (active); 5: 100% (inactive)

Take each entry in turn and give its growth.
1. CC(C)(C)Nc1nc2c(OCCc3ccccc3)cccn2c1-c1ccccc1Cl
2. COc1cc(/C=C/C(=O)c2cc(OC)c(OC)c(OC)c2)ccc1OCc1ccc(F)cc1
3. COc1cc2nc(-c3ccc(C)cc3)cc(OCCCNCC3CCCO3)c2cc1OC (centres undefined)
4. O=C(N/N=C/c1ccc(Br)s1)c1[nH]c2ccc(Br)cc2c1-c1ccccc1
5. O=C1C2=C(C(=O)c3c(O)cccc31)C(c1ccco1)c1sc(=O)[nH]c1S2 (centres undefined)
6. CC(=O)Oc1ccccc1C(=O)Nc1ccc(C(=O)/C=C/c2ccncc2)cc1
7. C=CCSc1ccc2c(c1)C(N1CCNCC1)=Nc1ccccc1O2
8. O=c1[nH]c2ccccc2cc1CSc1ccccc1Nc1nccc(-c2ccc(C(F)(F)F)cc2)n1

Solution:
-72.1% (active)
16% (inactive)
38% (inactive)
12.4% (inactive)
10.8% (inactive)
-23.9% (active)
85.3% [8.25 µM] (inactive)
69.1% (inactive)

Form field growth, entry COc1cccc(COc2ccc(/C=C3/C(=O)Nc4cc(Cl)ccc43)cc2)c1 : 99.6% (inactive)
